- Tested on: HT-29
- Test details: Antiproliferative activity against human HT-29 cells after 48 hrs by MTT assay
- Format: functional, cell-based
- Condition parameters: HT-29, 48 h
The entries below are paired with their reported pIC50.
To interpret pIC50, take it as minus log10 of a concentration measured in moles per litre.

INSERT INTO results (molecule, meas_value) VALUES
  ('COc1cc([C@@H]2c3cc4c(cc3C(NC(=O)c3cn(Cc5ccc6c(c5)OCO6)nn3)[C@H]3COC(=O)[C@H]23)OCO4)cc(OC)c1OC (single isomer, unassigned)', 4.44);

Quick one: pIC50 of COc1cccc(Cn2cc(C(=O)NC3c4cc5c(cc4[C@@H](c4cc(OC)c(OC)c(OC)c4)[C@H]4C(=O)OC[C@H]34)OCO5)nn2)c1 (single isomer, unassigned) ?
4.50

Reported pIC50 for COc1cc([C@@H]2c3cc4c(cc3C(NC(=O)c3cn(-c5cc(OC)c(OC)c(OC)c5)nn3)[C@H]3COC(=O)[C@H]23)OCO4)cc(OC)c1OC (single isomer, unassigned) : what is it?
5.07

What does the data say about its pIC50? Entry: COc1cc([C@@H]2c3cc4c(cc3[C@@H](O[C@@H]3O[C@@H]5CO[C@@H](C)O[C@H]5[C@H](O)[C@H]3O)[C@H]3COC(=O)[C@H]23)OCO4)cc(OC)c1O [ETOPOSIDE]
5.73

Field request: pIC50 | item: COc1ccc(-n2cc(C(=O)NC3c4cc5c(cc4[C@@H](c4cc(OC)c(OC)c(OC)c4)[C@H]4C(=O)OC[C@H]34)OCO5)nn2)cc1OC (single isomer, unassigned)
4.82

pIC50 for COc1ccc(-n2cc(C(=O)NC3c4cc5c(cc4[C@@H](c4cc(OC)c(OC)c(OC)c4)[C@H]4C(=O)OC[C@H]34)OCO5)nn2)cc1 (single isomer, unassigned) ?
4.94

---

The entries below are paired with their reported IC50.
- Test system: HT-29
- Test details: Antiproliferative activity against human HT-29 cells after 48 hrs by MTT assay
- Type: functional, cell-based
- Condition parameters: HT-29, 48 h
Unit µM implied. Number only.

# get_value(readout= IC50, system= HT-29) for COc1cc([C@@H]2c3cc4c(cc3C(NC(=O)c3cn(Cc5ccc(F)cc5)nn3)[C@H]3COC(=O)[C@H]23)OCO4)cc(OC)c1OC (single isomer, unassigned)
78.3

Observed IC50 on HT-29 for COc1cc([C@@H]2c3cc4c(cc3C(NC(=O)c3cn(-c5ccc6c(c5)OCO6)nn3)[C@H]3COC(=O)[C@H]23)OCO4)cc(OC)c1OC (single isomer, unassigned) , please.
17.9

Test system HT-29; read-out IC50; what value for COc1cc([C@@H]2c3cc4c(cc3C(NC(=O)c3cn(Cc5ccc(C(F)(F)F)cc5)nn3)[C@H]3COC(=O)[C@H]23)OCO4)cc(OC)c1OC (single isomer, unassigned) ?
66.4

---

- Test system: HT-29
- Test details: Antiproliferative activity against human HT-29 cells after 48 hrs by MTT assay
- Type: functional, cell-based
- Condition parameters: HT-29, 48 h
Measured IC50 accompanies every entry in the list below.
Supply the numeric figure in µM, leaving out any unit text.

INSERT INTO results (molecule, target_or_test_system, meas_value) VALUES
  ('COc1cc([C@@H]2c3cc4c(cc3C(NC(=O)c3cn(Cc5cccc(Oc6ccccc6)c5)nn3)[C@H]3COC(=O)[C@H]23)OCO4)cc(OC)c1OC (single isomer, unassigned)', 'HT-29', 40.5);

May I ask what IC50 has been recorded for COc1cc([C@@H]2c3cc4c(cc3C(NC(=O)c3cn(-c5ccc(F)cc5)nn3)[C@H]3COC(=O)[C@H]23)OCO4)cc(OC)c1OC (single isomer, unassigned) ?
13.8

IC50 lookup needed for COc1cc([C@@H]2c3cc4c(cc3C(NC(=O)c3cn(-c5ccc(C(F)(F)F)cc5)nn3)[C@H]3COC(=O)[C@H]23)OCO4)cc(OC)c1OC (single isomer, unassigned) , thanks.
4.4

---

Here, each record is paired with measured IC50 data.
- System: HT-29
- Test details: Antiproliferative activity against human HT-29 cells after 48 hrs by MTT assay
- Format: functional, cell-based
- Condition parameters: HT-29, 48 h
Answer format: numeric, µM implied, no suffix.

INSERT INTO results (compound, meas_value) VALUES
  ('COc1cc([C@@H]2c3cc4c(cc3C(NC(=O)c3cn(Cc5ccc(Cl)cc5)nn3)[C@H]3COC(=O)[C@H]23)OCO4)cc(OC)c1OC (single isomer, unassigned)', 23.7),
  ('COc1cc(Cn2cc(C(=O)NC3c4cc5c(cc4[C@@H](c4cc(OC)c(OC)c(OC)c4)[C@H]4C(=O)OC[C@H]34)OCO5)nn2)cc(OC)c1OC (single isomer, unassigned)', 8.54),
  ('COc1cc([C@@H]2c3cc4c(cc3[C@H](O)[C@H]3COC(=O)[C@H]23)OCO4)cc(OC)c1OC [PODOFILOX]', 4.78),
  ('COc1cc([C@@H]2c3cc4c(cc3C(NC(=O)c3cn(Cc5ccccc5)nn3)[C@H]3COC(=O)[C@H]23)OCO4)cc(OC)c1OC (single isomer, unassigned)', 19.1);

Report IC50 for COc1cc([C@@H]2c3cc4c(cc3C(NC(=O)c3cn(-c5ccccc5)nn3)[C@H]3COC(=O)[C@H]23)OCO4)cc(OC)c1OC (single isomer, unassigned) please.
5.37
